# target_of_assay: AKT (Homo sapiens)
# Construct: Kinases are expressed as either kinase domains or full length constructs; made in house
# Sequence (Q9Y243 whole entry, the tested form may be a part): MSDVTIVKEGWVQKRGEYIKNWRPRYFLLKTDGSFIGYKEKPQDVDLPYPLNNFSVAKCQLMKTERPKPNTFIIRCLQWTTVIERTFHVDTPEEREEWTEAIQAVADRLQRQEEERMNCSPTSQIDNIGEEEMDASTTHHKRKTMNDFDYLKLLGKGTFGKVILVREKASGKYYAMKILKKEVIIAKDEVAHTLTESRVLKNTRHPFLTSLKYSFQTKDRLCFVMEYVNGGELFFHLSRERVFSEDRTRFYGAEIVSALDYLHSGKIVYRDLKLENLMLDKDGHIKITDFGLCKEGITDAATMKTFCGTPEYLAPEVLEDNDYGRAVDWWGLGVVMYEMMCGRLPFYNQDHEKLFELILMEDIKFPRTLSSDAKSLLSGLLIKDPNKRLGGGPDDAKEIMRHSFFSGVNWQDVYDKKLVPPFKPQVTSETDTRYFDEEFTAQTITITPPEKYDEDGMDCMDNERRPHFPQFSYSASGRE
# assay_details: Kinase inhibition assay (33P transfer), AKT
# Type: biochemical
# condition_description: Table 2, class symbols A-E; read-out: AKT3-1
Listed below: IC50 values for each entry.

Worked cases, answers included:
substance_smiles	IC50
FC(F)(F)Sc1cccc(Nc2ncnc(Nc3cc(-c4ccco4)[nH]n3)n2)c1	8.35 to 10.7 µM
Fc1ccc(CNc2ncccc2-c2ncnc(Nc3ccc(N4CCOCC4)cc3)n2)cc1	> 9.84 µM
c1ccc(CNc2ncnc(Nc3cc(-c4ccco4)n[nH]3)n2)nc1	> 13.5 µM

IN: For the compound `Fc1ccc(Nc2ncnc(Nc3ccc4c(cnn4Cc4ccccc4)c3)n2)cc1F` , what IC50 is on record?
OUT: 0.931 to 5.59 µM
